experiment: in vitro; conditions: human, microsomes
experimental endpoint: half-life at 1 µM (min)
Numbers only, in min.

Give the measured half-life at 1 µM of `Cc1ccc(CN2CCN(C(=O)/C=C/c3ccc(O)cc3O)CC2)cc1` .
34.8

---

For each entry below, report its pIC50 value.
molecular target: UniProt C7FF04; experiment: biochemical; settings: IC50 value ± SD, L-tyrosine
One number for each entry, as −log10 of the molar value.

Your task in this section: give pIC50 for each listed record.
1. O=C(/C=C/c1ccc(O)cc1O)N1CCN(Cc2ccc(F)cc2)CC1 [Compound V-22]
2. O=C(CCc1cc(O)cc(O)c1)N1CCN(Cc2ccc(F)cc2)CC1 [Compound V-20]
3. O=C(CCc1cccc(O)c1)N1CCN(Cc2cccc(F)c2)CC1 [Compound V-2]

[6.91, 5.04, 3.53]

Your task in this section: give pIC50 for each listed record.
1. O=C(/C=C/c1ccc(O)cc1O)N1CCN(Cc2cccc(Cl)c2)CC1 [Compound V-30]
2. O=C(CCc1ccc(O)cc1O)N1CCN(Cc2cccc(Cl)c2)CC1 [Compound V-29]
3. N#Cc1ccc(CN2CCN(C(=O)CCc3ccc(O)cc3O)CC2)cc1 [Compound V-33]
4. O=C(CCc1cccc(O)c1)N1CCN(C/C=C/c2ccc(F)cc2)CC1 [Compound V-15]
5. COc1ccc(CN2CCN(C(=O)/C=C/c3ccc(O)cc3O)CC2)cc1 [Compound V-26]
6. O=C(CCc1cccc(O)c1)NCCCNCc1ccc(F)cc1 [Compound V-9]

7.68
6.67
6.52
4.38
7.64
3.48

Your task in this section: give pIC50 for each listed record.
1. O=C(CCc1cc(O)ccc1O)N1CCN(Cc2ccc(F)cc2)CC1 [Compound V-21]
2. O=C(CCc1cccc(O)c1)N1CC2CN(Cc3ccc(F)cc3)CC2C1 (stereo not shown) [Compound V-7]
3. O=C(/C=C/c1cccc(O)c1)N1CCN(Cc2ccc(F)cc2)CC1 [Compound V-5]
4. Cc1ccc(CN2CCN(C(=O)CCc3ccc(O)cc3O)CC2)cc1 [Compound V-23]
5. N#Cc1ccc(CN2CCN(C(=O)CCc3cccc(O)c3)CC2)cc1 [Compound V-14]
6. CCOc1ccc(CN2CCN(C(=O)CCc3ccc(O)cc3O)CC2)cc1 [Compound V-27]

1: 5.09; 2: 4.59; 3: 3.83; 4: 6.74; 5: 4.08; 6: 6.30

---

target: Mushroom TYR (EC 1.14.18.1) (Agaricus bisporus, UniProt C7FF04); experiment: biochemical; details: IC50 value ± SD, L-dopa, substrate L-dopa (diphenolase); n = 3; screening of de novo generated compounds (Table 1)
Sequence (C7FF04 1-392 limits assumed): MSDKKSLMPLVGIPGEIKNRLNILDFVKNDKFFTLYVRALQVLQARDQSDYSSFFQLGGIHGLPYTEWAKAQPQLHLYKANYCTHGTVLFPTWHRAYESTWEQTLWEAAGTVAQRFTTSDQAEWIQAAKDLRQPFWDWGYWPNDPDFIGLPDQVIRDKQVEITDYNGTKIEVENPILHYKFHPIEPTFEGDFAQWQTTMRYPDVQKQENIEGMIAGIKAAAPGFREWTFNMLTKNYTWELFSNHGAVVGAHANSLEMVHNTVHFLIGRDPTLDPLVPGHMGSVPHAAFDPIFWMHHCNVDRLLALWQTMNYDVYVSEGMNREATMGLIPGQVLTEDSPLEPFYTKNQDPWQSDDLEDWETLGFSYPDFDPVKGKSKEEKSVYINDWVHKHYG
pIC50: −log10 of the molar value.
experimental endpoint: pIC50

Worked cases, pIC50 given:
molecule	pIC50
O=C(O)c1ccc(CN2CCC(C(=O)c3ccccc3)CC2)cc1 [IX]	< 3.10
COc1cc(C(=O)N[C@@H](Cc2ccccc2)C(N)=O)ccc1O [Compound I]	< 3.10
O=C(Oc1ccc(N2CCNCC2)cc1)c1cnc2ccccc2c1 [XVI]	3.86
Cc1ccccc1CNC(=O)CCc1cccc(O)c1 [X]	3.34
O=C(CCc1cccc(O)c1)N1CCN(Cc2ccc(F)cc2)CC1 [Compound V]	4.73

Your task in this section: give pIC50 for each listed record.
1. O=C(CCc1cccc(O)c1)NC1CCN(Cc2ccccc2)CC1 [IV]
2. O=C(C=Cc1ccccc1)NCCc1cccc(O)c1 [XI, N-(3-hydroxyphenethyl)cinnamamide]
3. O=C(c1cccc(OCc2ccccc2)c1)N1CCN(c2ccc(O)cc2)CC1 [XV]

1. < 3.10
2. < 3.10
3. < 3.10

Your task in this section: give pIC50 for each listed record.
1. Cc1nc2cc(C(=O)N3CCCN(Cc4ccccc4)CC3)ccc2[nH]1 [XIV]
2. COc1cccc(/C=C/C(=O)Nc2n[nH]c3ccccc23)c1 [VII]

1: < 3.10; 2: < 3.10
